conditions: in THF, 288.15 K
readout-label: solubility (mole fraction)
Would you mind answering with just the numeric figure?

The molecule identified as N#Cc1ccc(C(c2ccc(C#N)cc2)n2cncn2)cc1 registered its solubility (mole fraction) at 0.0184

====

details: in ethyl acetate, 323.15 K
readout-label: solubility (mole fraction)
Reply with the value as a number alone.

compound N#Cc1ccc(C(c2ccc(C#N)cc2)n2cncn2)cc1 , solubility (mole fraction) observed: 0.0148

====

settings: in acetone, 283.15 K
readout-label: solubility (mole fraction)
Form field (numeric): enter value without unit.

Short answer for N#Cc1ccc(C(c2ccc(C#N)cc2)n2cncn2)cc1 : solubility (mole fraction) was 0.0147

====

conditions: in n-propanol, 298.15 K
readout-label: solubility (mole fraction)

Notebook: N#Cc1ccc(C(c2ccc(C#N)cc2)n2cncn2)cc1 , solubility (mole fraction) read as 0.000773

====

settings: in n-propanol, 283.15 K
readout-label: solubility (mole fraction)

# compound N#Cc1ccc(C(c2ccc(C#N)cc2)n2cncn2)cc1 ; its solubility (mole fraction) = 0.000351

====

details: in ethanol, 313.15 K
readout-label: solubility (mole fraction)
Simply state the number, no unit and no words.

Given item N#Cc1ccc(C(c2ccc(C#N)cc2)n2cncn2)cc1 , the value recorded as its solubility (mole fraction) is 0.00183

====

conditions: in n-propanol, 313.15 K
readout-label: solubility (mole fraction)

The molecule listed as N#Cc1ccc(C(c2ccc(C#N)cc2)n2cncn2)cc1 shows solubility (mole fraction) equal to 0.00158

====

conditions: in THF, 298.15 K
readout-label: solubility (mole fraction)
Lab note: write the figure by itself, no unit.

So, N#Cc1ccc(C(c2ccc(C#N)cc2)n2cncn2)cc1 ? Its solubility (mole fraction) was 0.0229

====

conditions: in acetone, 313.15 K
readout-label: solubility (mole fraction)
Respond with the number and no other words.

Quick note, solubility (mole fraction) for N#Cc1ccc(C(c2ccc(C#N)cc2)n2cncn2)cc1 landed at 0.0301

====

conditions: in ethyl acetate, 293.15 K
readout-label: solubility (mole fraction)
Write the number on its own, no unit after it.

solubility (mole fraction) for N#Cc1ccc(C(c2ccc(C#N)cc2)n2cncn2)cc1 is 0.007

====

settings: in ethanol, 318.15 K
readout-label: solubility (mole fraction)
In your answer, state the number alone without any accompanying words.

Form: compound = N#Cc1ccc(C(c2ccc(C#N)cc2)n2cncn2)cc1 ; solubility (mole fraction) = 0.00225

====

conditions: in methanol, 303.15 K
readout-label: solubility (mole fraction)
Lab note: jot down the number only; don't add units.

Measured solubility (mole fraction), N#Cc1ccc(C(c2ccc(C#N)cc2)n2cncn2)cc1 : 0.00239

====

details: in ethyl acetate, 313.15 K
readout-label: solubility (mole fraction)

Documented solubility (mole fraction) of N#Cc1ccc(C(c2ccc(C#N)cc2)n2cncn2)cc1 : 0.0117

====

details: in methanol, 283.15 K
readout-label: solubility (mole fraction)
# output: bare number, no unit

Consider N#Cc1ccc(C(c2ccc(C#N)cc2)n2cncn2)cc1 . Its measured solubility (mole fraction) is 0.00108

====

details: in ethanol, 308.15 K
readout-label: solubility (mole fraction)

Item: N#Cc1ccc(C(c2ccc(C#N)cc2)n2cncn2)cc1 | solubility (mole fraction): 0.00148

====

conditions: in acetonitrile, 308.15 K
readout-label: solubility (mole fraction)
Give only the figure.

# molecule N#Cc1ccc(C(c2ccc(C#N)cc2)n2cncn2)cc1 ; its solubility (mole fraction) = 0.0154

====

conditions: in THF, 293.15 K
readout-label: solubility (mole fraction)

solubility (mole fraction) reading for N#Cc1ccc(C(c2ccc(C#N)cc2)n2cncn2)cc1 : 0.0206

====

conditions: in acetone, 293.15 K
readout-label: solubility (mole fraction)
No unit in the answer, only the number.

Short answer for N#Cc1ccc(C(c2ccc(C#N)cc2)n2cncn2)cc1 : solubility (mole fraction) was 0.019

====

details: in acetone, 288.15 K
readout-label: solubility (mole fraction)
The answer should be written as a number, with no unit following it.

Item: N#Cc1ccc(C(c2ccc(C#N)cc2)n2cncn2)cc1 | solubility (mole fraction): 0.0168

====

conditions: in acetonitrile, 288.15 K
readout-label: solubility (mole fraction)

Sample N#Cc1ccc(C(c2ccc(C#N)cc2)n2cncn2)cc1 ; solubility (mole fraction) observed: 0.0077

====

conditions: in ethyl acetate, 303.15 K
readout-label: solubility (mole fraction)

Lab note: N#Cc1ccc(C(c2ccc(C#N)cc2)n2cncn2)cc1 gave solubility (mole fraction) of 0.00914

====

conditions: in methyl acetate, 308.15 K
readout-label: solubility (mole fraction)

response.value for N#Cc1ccc(C(c2ccc(C#N)cc2)n2cncn2)cc1 (field: solubility (mole fraction)) = 0.019

====

conditions: in methyl acetate, 293.15 K
readout-label: solubility (mole fraction)
Please reply with the number alone, leaving off any unit.

Form field solubility (mole fraction), entry N#Cc1ccc(C(c2ccc(C#N)cc2)n2cncn2)cc1 : 0.0135

====

details: in acetone, 303.15 K
readout-label: solubility (mole fraction)
// no unit, no text: just the number

So, N#Cc1ccc(C(c2ccc(C#N)cc2)n2cncn2)cc1 ? Its solubility (mole fraction) was 0.0241
